# tested.target: Na^+ /H^+ exchange (Rattus norvegicus, UniProt P26431)
# Construct: A supernatant was separated to prepare platelet-rich plasma; endogenous in cells
# Sequence (P26431 whole entry): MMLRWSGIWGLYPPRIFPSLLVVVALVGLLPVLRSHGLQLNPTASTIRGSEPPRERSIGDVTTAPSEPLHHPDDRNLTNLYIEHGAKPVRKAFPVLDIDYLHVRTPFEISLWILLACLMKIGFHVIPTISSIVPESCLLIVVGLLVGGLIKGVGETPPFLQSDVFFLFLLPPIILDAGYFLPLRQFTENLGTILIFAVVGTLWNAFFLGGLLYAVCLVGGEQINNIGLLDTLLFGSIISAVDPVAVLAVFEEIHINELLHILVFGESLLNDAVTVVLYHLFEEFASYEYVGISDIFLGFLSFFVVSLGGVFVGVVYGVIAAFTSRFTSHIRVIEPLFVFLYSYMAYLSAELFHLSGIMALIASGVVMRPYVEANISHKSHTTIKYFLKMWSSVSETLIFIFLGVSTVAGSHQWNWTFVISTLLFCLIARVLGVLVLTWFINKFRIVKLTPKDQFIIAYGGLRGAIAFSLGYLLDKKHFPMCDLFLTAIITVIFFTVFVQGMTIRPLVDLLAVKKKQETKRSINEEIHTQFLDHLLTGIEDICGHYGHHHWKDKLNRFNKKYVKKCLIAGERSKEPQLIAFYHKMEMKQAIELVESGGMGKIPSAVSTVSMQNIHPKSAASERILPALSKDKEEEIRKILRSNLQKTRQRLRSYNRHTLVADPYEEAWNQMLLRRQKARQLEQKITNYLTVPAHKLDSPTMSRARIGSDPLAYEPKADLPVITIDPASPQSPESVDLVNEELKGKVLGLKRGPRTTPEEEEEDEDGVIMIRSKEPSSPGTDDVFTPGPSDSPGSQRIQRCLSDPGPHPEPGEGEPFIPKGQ
# procedure.summary: Na^+ /H^+ Exchange inhibitory activity (sodium propionate-induced swelling of platelets)
# condition.notes: rat platelet-rich plasma, 37° C.
pIC50: −log10 of the molar value.
Think of 7 as a floor: if pIC50 stands on it or above, it is MET; beneath it, NOT MET.

>  <compound>
CC1Oc2cc(C(=O)NC(=N)N)ccc2NC1=O (centres unmarked)

>  <class.name>
NOT MET

$$$$
>  <compound>
CC[C@@H]1Oc2cc(C(=O)NC(=N)N)ccc2N(CC)C1=O

>  <class.name>
MET

$$$$
